log10 of SFC/donor reference
System: HDM-specific T cells expanded from PBMCs of HDM-allergic individuals
assay_details: T cell reactivity of peptides: IFN/IL-5 ELISPOT on in vitro expanded HDM-specific T cells
Format: cell-based, human
measurement_parameters: individual peptides 10 μg/mL
Note the log scale: values are log10 of SFC/donor expressed in SFC/donor.

Sample answers from the record:
substance	meas_value
64 (LYNPLGHRLINHTVR; Immunogenic fragment) [compound 64]	0.78
140 (EDGLIYNIASREKAD; Immunogenic fragment) [compound 140]	1.74
148 (TWWFDEAPMLSSSQY; Immunogenic fragment) [compound 148]	1.32

Task item: Which value of log10 of SFC/donor has been reported for 126 (TQNINFINILGVPKL; Immunogenic fragment) [compound 126] in the records?
Reply: 1.86

Task item: Fill in the blank: the reported log10 of SFC/donor of 120 (AHLYTLFYHVHKNGG; Immunogenic fragment) [compound 120] is ____.
Reply: 0.90

Task item: Any idea what log10 of SFC/donor was measured for EARENYITFTEPFMI (Immunogenic fragment) [Peptide 179, fragment of A0023 Der f/p] ?
Reply: 0.70

FYI, the data here is from patent US10556936B2.
